study-target: USP28 (His-tagged USP28-FL-mammalian) (Homo sapiens, UniProt Q96RU2)
Construct: Expression of USP28 (1-1077)-TEV-6*His (pTT5 vector) was carried out in Expi293f cells; made in house; host or cells: Expi293F cells (pTT5 vector)
Sequence (Q96RU2 whole entry): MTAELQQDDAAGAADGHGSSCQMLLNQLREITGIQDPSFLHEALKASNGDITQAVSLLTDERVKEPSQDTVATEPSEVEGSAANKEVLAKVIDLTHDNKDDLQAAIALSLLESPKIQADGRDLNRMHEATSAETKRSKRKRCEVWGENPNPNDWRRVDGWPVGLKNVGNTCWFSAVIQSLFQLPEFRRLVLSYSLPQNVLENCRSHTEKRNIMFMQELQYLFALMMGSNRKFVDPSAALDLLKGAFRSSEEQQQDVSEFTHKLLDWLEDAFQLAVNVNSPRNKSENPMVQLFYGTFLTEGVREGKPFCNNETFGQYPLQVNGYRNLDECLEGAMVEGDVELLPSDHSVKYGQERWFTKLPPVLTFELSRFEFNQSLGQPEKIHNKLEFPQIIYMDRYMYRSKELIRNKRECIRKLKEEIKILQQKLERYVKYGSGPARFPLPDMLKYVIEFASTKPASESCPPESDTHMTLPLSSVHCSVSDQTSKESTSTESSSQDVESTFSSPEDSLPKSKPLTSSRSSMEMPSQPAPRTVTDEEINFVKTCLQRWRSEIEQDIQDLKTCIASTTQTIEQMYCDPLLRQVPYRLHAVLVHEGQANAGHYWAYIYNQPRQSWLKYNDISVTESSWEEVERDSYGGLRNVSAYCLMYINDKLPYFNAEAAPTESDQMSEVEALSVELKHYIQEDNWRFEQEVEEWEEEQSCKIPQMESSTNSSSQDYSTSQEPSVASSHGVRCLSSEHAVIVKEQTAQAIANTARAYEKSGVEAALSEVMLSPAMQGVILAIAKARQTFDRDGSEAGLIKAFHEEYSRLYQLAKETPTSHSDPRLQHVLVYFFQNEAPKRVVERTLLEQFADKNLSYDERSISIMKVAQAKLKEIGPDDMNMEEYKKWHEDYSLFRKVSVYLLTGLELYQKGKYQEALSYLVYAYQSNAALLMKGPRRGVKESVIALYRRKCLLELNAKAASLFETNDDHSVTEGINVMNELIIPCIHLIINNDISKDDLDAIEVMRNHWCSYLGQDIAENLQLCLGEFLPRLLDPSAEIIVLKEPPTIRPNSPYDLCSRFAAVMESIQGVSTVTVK
assay: Ubiquitin-Rhodamine 110 Assay for USP28 Activity, Example A-1(a)
Type: biochemical
experimental-parameters: Ubiquitin-Rhodamine 110 biochemical assay, read-out: USP28 A-1(a) IC50 range
pIC50: −log10 of the molar value.
Entries annotated with measured pIC50

// worked examples, pIC50 included
line_notation=Cc1ccc2c(N)c(C(=O)N[C@H]3CCc4nc(N5C[C@@H](COC(F)(F)F)[C@@H](N)C5)ccc4C3)sc2n1 outcome_measure=pIC50 observed_result="5.70 to 6.70"
line_notation=Cc1ccc2c(N)c(C(=O)N[C@H]3CCc4nc(N5C[C@H](COC(F)(F)F)[C@H](N)C5)ccc4C3)sc2n1 outcome_measure=pIC50 observed_result="6.70 to 7.30"
line_notation=CCN[C@H]1CN(c2ccc3c(n2)CC[C@H](NC(=O)c2sc4nc(C)ccc4c2N)C3)C[C@@H]1COC outcome_measure=pIC50 observed_result="6.70 to 7.30"

Moving on to the next compound.
What pIC50 appears in the records for this compound with USP28 (His-tagged USP28-FL-mammalian) (Homo sapiens, UniProt Q96RU2)? `Cc1ccc2c(N)c(C(=O)N[C@H]3CCc4nc(N5C[C@@H](N)[C@]6(C5)OCC[C@@H]6C)ccc4C3)sc2n1` 5.70 to 6.70

====

study-target: USP25 (USP25-His6, Boston Biochem E-546) (Homo sapiens, UniProt Q9UHP3)
Construct: His6 (C); purchased Boston Biochem E-546
Sequence (Q9UHP3 1-1055): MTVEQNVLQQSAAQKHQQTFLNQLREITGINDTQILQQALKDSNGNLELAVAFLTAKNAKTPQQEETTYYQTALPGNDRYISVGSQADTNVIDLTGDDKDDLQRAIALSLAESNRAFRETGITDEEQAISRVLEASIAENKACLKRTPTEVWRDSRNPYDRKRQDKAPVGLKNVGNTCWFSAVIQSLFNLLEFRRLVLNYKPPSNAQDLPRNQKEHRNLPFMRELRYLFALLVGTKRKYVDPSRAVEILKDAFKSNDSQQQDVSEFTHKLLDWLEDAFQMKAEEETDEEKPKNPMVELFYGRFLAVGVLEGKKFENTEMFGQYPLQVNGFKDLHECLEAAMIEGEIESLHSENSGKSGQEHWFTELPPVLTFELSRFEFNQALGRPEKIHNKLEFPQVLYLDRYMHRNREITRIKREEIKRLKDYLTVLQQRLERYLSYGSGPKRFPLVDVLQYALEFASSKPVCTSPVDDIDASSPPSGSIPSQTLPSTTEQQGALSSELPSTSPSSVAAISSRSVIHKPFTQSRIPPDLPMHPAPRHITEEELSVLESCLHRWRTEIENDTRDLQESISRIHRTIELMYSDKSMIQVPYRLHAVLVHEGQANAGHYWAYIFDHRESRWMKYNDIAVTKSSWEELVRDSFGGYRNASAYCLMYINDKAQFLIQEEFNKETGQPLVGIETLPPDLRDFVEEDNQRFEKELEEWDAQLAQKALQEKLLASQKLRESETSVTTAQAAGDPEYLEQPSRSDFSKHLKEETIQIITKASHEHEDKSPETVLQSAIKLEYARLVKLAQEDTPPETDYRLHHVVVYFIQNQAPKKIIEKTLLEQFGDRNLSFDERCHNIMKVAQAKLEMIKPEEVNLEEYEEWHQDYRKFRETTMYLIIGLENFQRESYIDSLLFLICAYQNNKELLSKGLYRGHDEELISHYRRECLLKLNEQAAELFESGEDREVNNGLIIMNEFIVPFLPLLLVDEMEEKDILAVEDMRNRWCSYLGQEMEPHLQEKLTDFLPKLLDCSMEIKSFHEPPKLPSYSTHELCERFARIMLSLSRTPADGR
assay: Ubiquitin-Rhodamine 110 Assay for USP25 Activity, Example A-3
Format: biochemical
experimental-parameters: Ubiquitin-Rhodamine 110 assay, Example A-3; read-out: USP25 A-3 IC50 range
Entries annotated with measured IC50

compound=CN[C@@H]1CN(c2ccc3c(n2)CC[C@H](NC(=O)c2sc4nc(C)ccc4c2N)C3)C[C@@H]1CF outcome_measure=IC50 observed_result="> 2000 nM"

Quick check: IC50 of Cc1cnc2c(N)c(C(=O)N[C@@H]3CCc4cc(N5C[C@H]6C[C@@H]5CN6)ccc4C3)sc2n1 (single isomer, unassigned) ? 200 to 2000 nM

Quick check: IC50 of `Cc1ccc2c(N)c(C(=O)N[C@H]3CCc4nc(N5CC[C@]6(C5)OCC[C@@H]6N)ccc4C3)sc2n1` ? > 2000 nM

Quick check: IC50 of CO[C@H]1CN(c2ccc3c(c2)OC[C@H](NC(=O)c2sc4nc(C)sc4c2N)C3)CC1N (stereo partly shown) ? 200 to 2000 nM

====

study-target: USP28 (USP28-5(1-1077)-TEV-6*His; LifeSensors) (Homo sapiens, UniProt Q96RU2)
Construct: construct USP28 (USP28-5(1-1077)-TEV-6*His; LifeSensors); TEV cleavage site (C); 6xHis (C); purchased LifeSensors
assay: Ubiquitin-Rhodamine 110 Assay for USP28 Activity, Example A-1(b)
Type: biochemical
outcome-measure: USP28 A-1(b) IC50 range

// worked examples, USP28 A-1(b) IC50 range included
molecule="Cc1cnc2c(N)c(C(=O)N[C@H]3CCc4cc(N5C[C@@H]6C[C@H]5CN6)ccc4C3)sc2n1 (single isomer, unassigned)" observed_result="++ (“++”: 0.2-2 μM)"
molecule="Cc1cnc2c(N)c(C(=O)N[C@@H]3CCc4cc(N5CCNCC5)cc(F)c4C3)sc2n1 (single isomer, unassigned)" observed_result="+ (“+”L>2 μM)"
molecule="Cc1nc2sc(C(=O)N[C@H]3CCc4cc(N5CCNCC5)ccc4C3)c(N)c2s1 (single isomer, unassigned)" observed_result="+ (“+”L>2 μM)"
molecule="Cc1ccc2c(N)c(C(=O)N[C@@H]3CCc4cc(N5CCNCC5)ccc4C3)sc2n1 (single isomer, unassigned)" observed_result="++ (“++”: 0.2-2 μM)"
molecule="Cc1ccc2c(N)c(C(=O)N[C@H]3CCc4cc(N5CC6CNCC(C5)O6)cc(F)c4C3)sc2n1 (single isomer, unassigned)" observed_result="++ (“++”: 0.2-2 μM)"
molecule="CN[C@H]1CCN(c2ccc3c(c2)CC[C@H](NC(=O)c2sc4nc(C)cnc4c2N)C3)C1 (single isomer, unassigned)" observed_result="++ (“++”: 0.2-2 μM)"
molecule="Cc1ccc2c(N)c(C(=O)N[C@@H]3CCc4c(C#N)c(N5CCNCC5)cc(F)c4C3)sc2n1 (single isomer, unassigned)" observed_result="+ (“+”L>2 μM)"
molecule="Cc1cnc2c(N)c(C(=O)N[C@H]3CCc4cc(N5CCNCC5)ccc4C3)sc2n1 (single isomer, unassigned)" observed_result="++ (“++”: 0.2-2 μM)"

Quick check: USP28 A-1(b) IC50 range of CN[C@H]1CCN(c2ccc3c(c2)CC[C@@H](NC(=O)c2sc4nc(C)cnc4c2N)C3)C1 (single isomer, unassigned) ? + (“+”L>2 μM)

Quick check: USP28 A-1(b) IC50 range of Cc1ccc2c(N)c(C(=O)N[C@H]3COc4cc(N5CCNCC5)ccc4[C@H]3C)sc2n1 (single isomer, unassigned) ? + (“+”L>2 μM)

Quick check: USP28 A-1(b) IC50 range of CN[C@@H]1CCN(c2ccc3c(c2)CC[C@H](NC(=O)c2sc4nc(C)cnc4c2N)C3)C1 (single isomer, unassigned) ? ++ (“++”: 0.2-2 μM)

====

study-target: USP28 (His-tagged USP28-FL-mammalian) (Homo sapiens)
Construct: Expression of USP28 (1-1077)-TEV-6*His (pTT5 vector) was carried out in Expi293f cells; made in house; host or cells: Expi293F cells (pTT5 vector)
assay: Ubiquitin-Rhodamine 110 Assay for USP28 Activity, Example A-1(a)
Type: biochemical
experimental-parameters: Ubiquitin-Rhodamine 110 assay, read-out: USP28 A-1(a) IC50 range
Entries annotated with measured IC50

// worked examples, IC50 included
compound=COC[C@@]1(C)CN(c2ccc3c(n2)CC[C@H](NC(=O)c2sc4nc(C)ccc4c2N)C3)C[C@H]1N observed_result="0.05 to 0.2 µM"
compound="Cc1cnc2c(N)c(C(=O)N[C@@H]3CCc4cc(N5C[C@@H]6C[C@H]5CN6)ccc4C3)sc2n1 (single isomer, unassigned)" observed_result="0.2 to 2 µM"
compound="Cc1ccc2c(N)c(C(=O)N[C@H]3CCc4c(F)c(N5CC6CCC(C5)N6)cc(F)c4C3)sc2n1 (single isomer, unassigned)" observed_result="0.001 to 0.05 µM"
compound="Cc1ccc2c(N)c(C(=O)N[C@H]3COc4cc(N5CCNCC5)ccc4[C@@H]3C)sc2n1 (single isomer, unassigned) [Example 11-16]" observed_result="> 2 µM"
compound=Cc1ccc2c(N)c(C(=O)N[C@H]3CCc4nc(N5C[C@H](N)[C@@]6(CCOC6)C5)ccc4C3)sc2n1 observed_result="0.05 to 0.2 µM"

Moving on to the next compound.
Quick check: IC50 of Cc1cnc2c(N)c(C(=O)N[C@@H]3CCc4c(C#N)c(N5CC6CCC(C5)N6)cc(F)c4C3)sc2n1 (single isomer, unassigned) ? 0.2 to 2 µM

Taken from patent US12162888B2.
